Entry source: patent US8524214B2

System: HCT116
Assay: Inhibitory effect on cell growth, HCT116 cells
Type: cell-based, human
Details: Homo sapiens, HCT-116
readout_type: pIC50
Value format note: pIC50 is -log10 of concentration (mol/L); just state the number.

State the recorded pIC50 for this entry: CC[C@@]1(O)C(=O)OCc2c1cc1n(c2=O)Cc2cc3ccccc3nc2-1
7.64

Similarly, CCc1c2c(nc3ccc(OC(=O)N4CCC(N5CCCCC5)CC4)cc13)-c1cc3c(c(=O)n1C2)COC(=O)[C@]3(O)CC ?
5.33
